system: OVCAR-4 ovarian; test: NCI tumour cell line growth inhibition, 48 h
Property: TGI; scope: individual molecules
// return numeric value only (unit: µM, not printed)

>>> measured_result("COc1ccc(C2C3CCCC(C3=O)C(c3ccc(OC)cc3)N2N=O)cc1 (stereo unspecified)")
45
>>> measured_result("CN(C)c1ccc(/C=c2/c3ccccc3n3c2c2cc(F)ccc2[n+]3C)cc1")
34.2

GET TGI where system = OVCAR-4 ovarian and item = COc1ccc(C2C=C(c3ccc(Cl)cc3)N=C3SC=C(C)N32)c(Br)c1 (stereo unspecified)
34.6

###

Property: TGI; scope: individual compounds
test system: CAKI-1 renal; test: NCI tumour cell line growth inhibition, 48 h

>>> measured_result("C[C@@H]1COCCN1c1cc(C2([S@@](C)(=N)=O)CC2)nc(-c2ccnc3[nH]ccc23)n1")
"> 79.2 µM"

GET TGI where system = CAKI-1 renal and item = C=CCOc1ccccc1C1(O)c2ccccc2C2=NCCCN21 (configuration not stated)
> 100 µM

GET TGI where system = CAKI-1 renal and item = CCOC(=O)C1([Se]c2ccccc2)CCCC1=O (configuration not stated)
> 100 µM

GET TGI where system = CAKI-1 renal and item = CC1NC(=O)C2=C1C(N)=NC(=O)C2 (configuration not stated)
> 100 µM

GET TGI where system = CAKI-1 renal and item = `CC(C)(C)OC(=O)Cn1ncn(NC(=O)Cc2ccccc2)c1=O`
> 10 µM
